target: Human adrenergic α2B receptor (Homo sapiens, UniProt P18089); experiment: β-Arrestin GPCR functional assay, adrenergic α2B (Protocol B); format: cell-based; settings: 10 nM compound; nor-epinephrine at EC80 (50 nM)
Measured quantity: Percentage inhibition, Adrenergic α2B (%)

Cc1ccc2c(c1)c1c(n2CC(C)(O)c2ccncc2)CCN2CCCC12 (single isomer, unassigned) [13a]	9

[a] Cc1ccc2c(c1)c1c(n2CC(C)(O)c2ccncc2)CCN2CCCC12 (single isomer, unassigned) [13b]
[b] Cc1cc(C)c2c(c1)c1c(n2CC(C)(O)c2ccncc2)CCN2CCCC12 (single isomer, unassigned) [19b]
Query: Which value of Percentage inhibition, Adrenergic α2B is greater, the one for a or the one for b ? The response must carry the label of the picked entry.
Reply: b

[P] Cc1cc(C)c2c(c1)c1c(n2CC(C)(O)c2ccncc2)CCN2CCCC12 (single isomer, unassigned) [19a]
[Q] Cc1ccc2c(c1)c1c(n2CC(O)c2ccncc2F)CCN2CCCC12 (single isomer, unassigned) [14b]
Query: Which value of Percentage inhibition, Adrenergic α2B is greater, the one for P or the one for Q ? The response must carry the label of the picked entry.
Reply: P

====

Molecular target: UniProt:P18089
Sequence (P18089 1-450): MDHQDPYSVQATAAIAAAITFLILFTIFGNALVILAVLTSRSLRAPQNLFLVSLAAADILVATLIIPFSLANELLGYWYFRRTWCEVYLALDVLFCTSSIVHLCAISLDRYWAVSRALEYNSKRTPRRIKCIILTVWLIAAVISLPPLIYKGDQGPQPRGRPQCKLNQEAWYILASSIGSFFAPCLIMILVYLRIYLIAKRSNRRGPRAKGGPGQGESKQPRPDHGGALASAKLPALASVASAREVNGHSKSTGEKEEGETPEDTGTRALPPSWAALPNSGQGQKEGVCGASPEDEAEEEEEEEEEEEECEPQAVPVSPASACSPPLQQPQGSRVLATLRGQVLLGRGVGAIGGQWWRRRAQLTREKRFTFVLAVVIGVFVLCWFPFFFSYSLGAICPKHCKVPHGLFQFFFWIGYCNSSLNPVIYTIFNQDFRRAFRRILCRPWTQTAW
Assay: Radioligand binding, adrenergic α2B (Protocol Group B)
Design: purchased Milipore (Millipore)
Conditions: 10 nM compound; Protocol Group B; read-out: Percentage inhibition of ligand binding, Adrenergic α2B (10 nM)
Measured quantity: inhibition at 0.01 µM (%)

Cc1ccc2c(c1)c1c(n2CC(OCC2CCC2)c2ccncc2)CCN(C)C1 (single isomer, unassigned) [59a]	93
CC(O)(Cn1c2c(c3cc(Cl)cc(F)c31)C1CCCN1CC2)c1ccncc1 (single isomer, unassigned) [52d]	9
CN1CCc2c(c3cccc(Cl)c3n2CC(O)c2cccnc2)C1 (stereo not shown) [compound 20]	6
Cc1cc(F)c2c(c1)c1c(n2CC(C)(O)c2ccncc2)CCN2CCCC12 (single isomer, unassigned) [81a]	96

[P] CC(O)(Cn1c2c(c3cc(F)ccc31)C1CCCN1CC2)c1ccncc1 (single isomer, unassigned) [31c]
[Q] CC(O)(Cn1c2c(c3cc(C(F)(F)F)ccc31)CN1CCCC1C2)c1cccnc1 (single isomer, unassigned) [85a]
[R] Cc1ccc2c(c1)c1c(n2CC(OC(C)C)c2ccncc2)CCN(C)C1 (stereo not shown) [compound 49]
[S] Cc1cc(F)c2c(c1)c1c(n2CC(O)c2ccncc2)CCN2CCCC12 (single isomer, unassigned) [137c]
Query: Sort these molecules on inhibition at 0.01 µM so the largest reading comes first. Enter labels, ranked according to the request.
Reply: R, S, Q, P
(R: 50%, S: 14%, Q: 9%, P: 3%)

[I] Cc1ccc2c(c1)c1c(n2CC(OC2CCCC2)c2ccncc2)CCN(C)C1 (single isomer, unassigned) [35a]
[II] Cc1ccc2c(c1)c1c(n2CC(OC(N)=O)c2ccncc2)CCN(C)C1 (single isomer, unassigned) [8b]
Query: Which value of inhibition at 0.01 µM is greater, the one for I or the one for II ? The response must carry the label of the picked entry.
Reply: I
(I: 63%, II: 13%)

[1] CC(O)(Cn1c2c(c3cc(F)ccc31)C1CCCN1CC2)c1ccncc1 (single isomer, unassigned) [31a]
[2] Cc1ccc2c(c1)c1c(n2CC(O)c2ccc(C(=O)NC3CC3)nc2)CCN(C)C1 (stereo not shown) [compound 55]
[3] Cc1ccc2c(c1)c1c(n2CC(C)(O)c2cccnc2)CCN(CC(F)F)C1 (stereo not shown) [compound 58]
[4] Cc1ccc2c(c1)c1c(n2CC(O)c2cc[n+]([O-])cc2)CCN2CCCC12 (stereo not shown) [compound 22]
Query: Let's sort these by inhibition at 0.01 µM, smallest first. Go ahead? Enter labels, ranked according to the request.
Reply: 3, 2, 4, 1

====

Biological target: Human adrenergic α1B receptor (Homo sapiens)
Sequence (P35368 1-520): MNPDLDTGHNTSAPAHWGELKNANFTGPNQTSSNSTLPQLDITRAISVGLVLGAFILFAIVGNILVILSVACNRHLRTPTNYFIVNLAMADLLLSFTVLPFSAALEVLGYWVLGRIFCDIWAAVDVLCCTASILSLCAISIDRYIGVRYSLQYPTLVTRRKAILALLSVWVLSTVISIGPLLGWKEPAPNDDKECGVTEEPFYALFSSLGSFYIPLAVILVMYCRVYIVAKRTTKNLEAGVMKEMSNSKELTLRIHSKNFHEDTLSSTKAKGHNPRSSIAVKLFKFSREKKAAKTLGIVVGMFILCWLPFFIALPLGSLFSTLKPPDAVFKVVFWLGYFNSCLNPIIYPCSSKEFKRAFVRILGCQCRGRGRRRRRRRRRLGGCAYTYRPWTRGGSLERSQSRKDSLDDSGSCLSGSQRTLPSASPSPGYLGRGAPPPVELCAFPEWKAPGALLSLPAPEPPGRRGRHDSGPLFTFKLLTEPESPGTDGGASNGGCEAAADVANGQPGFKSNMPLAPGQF
Test: β-Arrestin GPCR functional assay, adrenergic α1B (Protocol B)
Conditions: β-arrestin, antagonist vs nor-epinephrine EC80
Text: To evaluate the activity of compounds in β-Arrestin GPCR functional assays, recombinant CHO cell line (DiscoveRX), over expressed with human adrenergic α1B receptor were used. The experiment was done with a kit of DiscoveRX as per recommended protocol of the supplier. […] The reading was taken in Envision at luminescence mode. […]
Measured quantity: IC50 (nM)

// known answers, use as guide
Cc1cc(F)c2c(c1)c1c(n2CC(O)c2ccncc2)CCN2CCCC12 (single isomer, unassigned) [137a]	114
Cc1ccc2c(c1)c1c(n2C[C@@H](OC2CCCC2)c2ccncc2)CCN2CCC[C@H]12 [compound 82]	382
CC(O)(Cn1c2c(c3cc(Cl)cc(F)c31)C1CCCN1CC2)c1ccncc1 (single isomer, unassigned) [52b]	224

[1] OC(Cn1c2c(c3cc(Cl)cc(F)c31)C1CCCN1CC2)c1ccncc1 (single isomer, unassigned) [135a]
[2] CCCOC(Cn1c2c(c3cc(C)ccc31)CN(C)CC2)c1ccncc1 (single isomer, unassigned) [42a]
[3] Cc1cc(Cl)c2c(c1)c1c(n2CC(C)(O)c2ccncc2)CCN2CCCC12 (single isomer, unassigned) [91b]
[4] OC(Cn1c2c(c3cc(Cl)cc(F)c31)C1CCCN1CC2)c1ccncc1 (single isomer, unassigned) [135b]
Query: Sort these molecules on IC50 so the largest reading comes first. Enter labels, ranked according to the request.
Reply: 2, 3, 1, 4

====

Target: Human adrenergic α2B receptor (Homo sapiens, UniProt P18089)
Assay: Radioligand binding, adrenergic α2B (Protocol Group B)
Parameters: purchased Milipore (Millipore)
Details: 0.1 nM compound; concentration series; 0.0001 µM
Procedure: To evaluate the activity of compounds in radioligand binding assays, Human adrenergic α2B receptor obtained from recombinant cell membrane from Milipore. Binding experiments were carried out in Tris-HCl buffer (50 mM Tris-HCl buffer, pH 7.4, 5 mM Mgcl2, 1 mM Cacl2, 0.2% BSA) as recommended by Milipore. […] Non-specific binding was estimated in the presence of 10 μM Rauwolscine. […] Compounds were screened at various concentrations, using 1% DMSO as vehicle. […]
Measured quantity: Percentage inhibition of ligand binding, Adrenergic α2B, 0.1 nM (%)

// known answers, use as guide
Cc1cc(C)c2c(c1)c1c(n2CC(C)(O)c2ccncc2)CCN2CCCC12 (single isomer, unassigned) [19a]	8
Cc1cc(C)c2c(c1)c1c(n2CC(C)(O)c2ccncc2)CCN2CCCC12 (single isomer, unassigned) [19b]	0

[I] Cc1ccc2c(c1)c1c(n2CC(O)c2ccncc2F)CCN2CCCC12 (single isomer, unassigned) [14b]
[II] Cc1ccc2c(c1)c1c(n2CC(O)c2ccncc2F)CCN2CCCC12 (single isomer, unassigned) [14a]
Query: // which entry reports the smaller Percentage inhibition of ligand binding, Adrenergic α2B, 0.1 nM, I or II ? The response must carry the label of the picked entry.
Reply: II
(II: −28%, I: 18%)
